Entries annotated with measured inhibition
# System: eIF-2-alpha kinase GCN2 (Homo sapiens) (UniProt Q9P2K8)
# Sequence (Q9P2K8 whole entry, the tested form may be a part): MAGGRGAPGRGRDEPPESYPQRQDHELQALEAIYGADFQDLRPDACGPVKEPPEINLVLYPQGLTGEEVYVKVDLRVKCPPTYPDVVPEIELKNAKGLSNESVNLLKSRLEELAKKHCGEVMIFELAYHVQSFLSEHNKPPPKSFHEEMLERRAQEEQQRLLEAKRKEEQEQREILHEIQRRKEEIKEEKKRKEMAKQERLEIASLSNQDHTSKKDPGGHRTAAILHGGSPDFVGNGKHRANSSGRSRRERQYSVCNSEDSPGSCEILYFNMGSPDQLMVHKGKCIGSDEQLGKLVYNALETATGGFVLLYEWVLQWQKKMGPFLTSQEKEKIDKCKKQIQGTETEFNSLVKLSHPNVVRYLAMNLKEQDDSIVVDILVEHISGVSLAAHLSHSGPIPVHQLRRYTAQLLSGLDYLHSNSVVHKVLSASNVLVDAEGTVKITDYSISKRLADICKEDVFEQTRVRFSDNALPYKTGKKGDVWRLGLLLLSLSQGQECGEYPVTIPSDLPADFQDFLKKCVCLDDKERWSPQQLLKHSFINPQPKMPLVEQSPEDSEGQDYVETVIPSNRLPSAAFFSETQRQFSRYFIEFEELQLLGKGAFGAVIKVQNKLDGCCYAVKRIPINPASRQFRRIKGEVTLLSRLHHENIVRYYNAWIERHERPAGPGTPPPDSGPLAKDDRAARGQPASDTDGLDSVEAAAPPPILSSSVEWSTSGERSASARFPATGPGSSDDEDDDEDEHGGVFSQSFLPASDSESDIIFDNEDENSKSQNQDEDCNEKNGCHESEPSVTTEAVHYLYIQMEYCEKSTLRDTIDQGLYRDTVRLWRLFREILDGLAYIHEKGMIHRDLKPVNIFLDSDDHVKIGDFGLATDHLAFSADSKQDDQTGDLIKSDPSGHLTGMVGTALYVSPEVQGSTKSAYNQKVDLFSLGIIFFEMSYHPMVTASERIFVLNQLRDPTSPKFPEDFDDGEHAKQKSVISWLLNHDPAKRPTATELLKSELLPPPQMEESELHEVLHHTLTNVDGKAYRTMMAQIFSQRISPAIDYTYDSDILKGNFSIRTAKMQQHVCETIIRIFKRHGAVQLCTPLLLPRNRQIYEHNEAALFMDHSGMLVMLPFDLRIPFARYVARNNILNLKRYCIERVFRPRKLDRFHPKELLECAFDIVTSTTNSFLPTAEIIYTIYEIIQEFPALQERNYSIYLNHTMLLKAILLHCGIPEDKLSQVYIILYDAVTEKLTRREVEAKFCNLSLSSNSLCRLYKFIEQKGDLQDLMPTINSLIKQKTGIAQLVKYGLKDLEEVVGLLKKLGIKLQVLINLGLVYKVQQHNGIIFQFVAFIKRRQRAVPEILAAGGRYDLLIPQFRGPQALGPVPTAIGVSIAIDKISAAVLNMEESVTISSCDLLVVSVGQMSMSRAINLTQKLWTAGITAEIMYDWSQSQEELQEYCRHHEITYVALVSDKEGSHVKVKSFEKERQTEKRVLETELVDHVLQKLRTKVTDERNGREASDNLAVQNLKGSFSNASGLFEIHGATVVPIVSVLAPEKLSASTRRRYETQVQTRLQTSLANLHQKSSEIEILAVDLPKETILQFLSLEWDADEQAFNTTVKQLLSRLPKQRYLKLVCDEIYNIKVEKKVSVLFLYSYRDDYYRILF
# Assay explanation: Inhibition of human GCN2 domain2 in HL-60 cells lysate assessed as reduction of labeling of acyl-phosphate ATP probe at 100 nM
# Format: cell-free
Measure name: inhibition

C[C@H]1COc2c(NCCCc3ccccn3)c(F)c(N)c3c(=O)c(C#N)cn1c23; < 35%
C[C@H]1COc2c(NCCCn3cccn3)c(F)c(N)c3c(=O)c(C(=O)O)cn1c23; < 35%
C[C@H]1COc2c(NCCCc3ccccn3)c(F)c(N)c3c(=O)c(C(=O)O)cn1c23; < 35%
C[C@H]1COc2c(NCCCn3cccn3)c(F)c(N)c3c(=O)c(C#N)cn1c23; < 35%

====

# System: Serine/threonine-protein kinase mTOR (Homo sapiens) (UniProt P42345)
# Assay explanation: Inhibition of human mTOR in HL-60 cells lysate assessed as reduction of labeling of acyl-phosphate ATP probe at 100 nM
# Assay type: cell-free
Overview of recorded inhibition for various compounds
Measure name: inhibition

C[C@H]1COc2c(NCCCn3cccn3)c(F)c(N)c3c(=O)c(C#N)cn1c23; < 35%
C[C@H]1COc2c(NCCCc3ccccn3)c(F)c(N)c3c(=O)c(C(=O)O)cn1c23; < 35%
C[C@H]1COc2c(NCCCc3ccccn3)c(F)c(N)c3c(=O)c(C#N)cn1c23; < 35%
C[C@H]1COc2c(NCCCn3cccn3)c(F)c(N)c3c(=O)c(C(=O)O)cn1c23; < 35%

====

Let's look at some compounds and their measured inhibition.
# System: Glycogen synthase kinase-3 alpha (Homo sapiens)
# Assay explanation: Inhibition of human GSK3alpha in HL-60 cells lysate assessed as reduction of labeling of acyl-phosphate ATP probe at 100 nM
# Type: cell-free
Measure name: inhibition (%)

C[C@H]1COc2c(NCCCc3ccccn3)c(F)c(N)c3c(=O)c(C(=O)O)cn1c23; 94.3
C[C@H]1COc2c(NCCCn3cccn3)c(F)c(N)c3c(=O)c(C(=O)O)cn1c23; 95.2

====

# Test system: HL-60
# Assay explanation: Inhibition of human CLK1/CLK4 in HL-60 cells lysate assessed as reduction of labeling of acyl-phosphate ATP probe at 100 nM
Recorded inhibition at 0.1 µM values for a group of compounds are listed next.
Measure name: inhibition at 0.1 µM

C[C@H]1COc2c(NCCCc3ccccn3)c(F)c(N)c3c(=O)c(C(=O)O)cn1c23; < 35%
C[C@H]1COc2c(NCCCn3cccn3)c(F)c(N)c3c(=O)c(C(=O)O)cn1c23; < 35%
C[C@H]1COc2c(NCCCn3cccn3)c(F)c(N)c3c(=O)c(C#N)cn1c23; < 35%
C[C@H]1COc2c(NCCCc3ccccn3)c(F)c(N)c3c(=O)c(C#N)cn1c23; < 35%
